System: MDA-MB-435 melanoma
test_method_notes: NCI-60 one-dose screen, 48 h
assay_context: 10 µM unless noted
Compounds without any hit were thinned out: in the full panel of roughly 83,000, 20% have a hit. The source made the active and inactive calls. How the source made its calls: active means growth percent below 10; inactive means the rest.
I would appreciate it if you answered using one of these outcomes: yes for active, no for inactive

For orientation, consider the following solved cases.
[[record]]
structure = "N#Cc1c(-c2cccs2)cc(-c2cccnc2)[nH]c1=O"
experimental_system = "MDA-MB-435 melanoma"
assigned_class = "no"

[[record]]
structure = "COC(=O)CCC(=O)C(=O)OC"
experimental_system = "MDA-MB-435 melanoma"
assigned_class = "no"

[[record]]
structure = "O=C1c2cccnc2C(=O)c2c1c(C(=O)NCCn1ccnc1)c1ccccn21"
experimental_system = "MDA-MB-435 melanoma"
assigned_class = "yes"

[[record]]
structure = "O=C1c2c(c3c4ccc(Br)cc4oc3c3[nH]c4ccccc4c23)C(=O)N1O"
experimental_system = "MDA-MB-435 melanoma"
assigned_class = "no"

[[record]]
structure = "COc1ccc2nc3ccc(OC)cc3c(SCCCN)c2c1"
experimental_system = "MDA-MB-435 melanoma"
assigned_class = "no"


Moving on to the next compound.
What did this assay record as the result for O=C1/C(=C/c2ccc(Cl)c(Cl)c2)CN(C(=O)C(Cl)Cl)C/C1=C\c1ccc(Cl)c(Cl)c1 ?
yes

Cited source for all entries: PubChem BioAssay (NCI)
